Data provenance: paper PMC5673977

test system: C. albicans SC5314; assay type: cell-based, Candida albicans; details: SC 5314; YNB-AS medium; 5 × 10^3 cfu mL^-1, 37°C, 24 h, turbidity 531 nm, at least 80% decrease
Where a SMILES comes first, the peptide text is derived from it. [ ]: non-standard residue; d: D form. The star is where a group is joined. Fumaryl(OMe) = COC(=O)/C=C/C(=O)*; Dap = NC[C@H](N)C(=O)O
measured.parameter: MIC (µg/mL)
API: value field is a number in µg/mL; no unit string.

Prompt: Query: MIC; subject: COC(=O)/C=C/C(=O)NC[C@H](N)C(=O)N[C@@H](CCCCN)C(=O)N[C@@H](CCCCN)C(=O)N[C@H](C(=O)N[C@H](C(=O)N[C@@H](Cc1ccccc1)C(=O)N[C@@H](Cc1c[nH]c2ccccc12)C(=O)N[C@H](C(=O)N[C@@H](CCCCN)C(=O)N[C@@H](Cc1ccccc1)C(=O)N[C@@H](CCCCN)C(=O)O)C(C)C)C(C)C)C(C)C [Peptide F11] (H-[Dap](Fumaryl(OMe))KKVVFWVKFK-OH; N-terminus assumed)
Response: 16

###

tested on: C. albicans opt1Δ; type: cell-based, Candida albicans; details: RPMI-1640 medium, MOPS pH 7.0, CLSI conditions, turbidity 531 nm, at least 80% decrease
Where a SMILES comes first, the peptide text is derived from it. [ ]: non-standard residue; d: D form. The star is where a group is joined. Fumaryl(OMe) = COC(=O)/C=C/C(=O)*; Dap = NC[C@H](N)C(=O)O
measured.parameter: MIC

Here is how some compounds turned out for MIC.
# compound, value
records = [
    ("COC(=O)/C=C/C(=O)NC[C@H](NC(=O)[C@H](CCSC)NC(=O)[C@@H](NC(=O)[C@@H]1CCCN1C(=O)[C@H](CC(C)C)NC(=O)[C@@H](N)CCCCN)C(C)C)C(=O)O [Peptide F6, Lys-Leu-Pro-Val-Met-FMDP] (H-KLPVM[Dap](Fumaryl(OMe))-OH; N-terminus and C-terminus assumed)", ">128 µg/mL"),
    ("COC(=O)/C=C/C(=O)NC[C@H](N)C(=O)N[C@@H](CCCCN)C(=O)N[C@@H](CCCCN)C(=O)N[C@H](C(=O)N[C@H](C(=O)N[C@@H](Cc1ccccc1)C(=O)N[C@@H](Cc1c[nH]c2ccccc12)C(=O)N[C@H](C(=O)N[C@@H](CCCCN)C(=O)N[C@@H](Cc1ccccc1)C(=O)N[C@@H](CCCCN)C(=O)O)C(C)C)C(C)C)C(C)C [Peptide F11] (H-[Dap](Fumaryl(OMe))KKVVFWVKFK-OH; N-terminus assumed)", ">128 µg/mL"),
    ("CC(C)[C@H](NC(=O)[C@H](Cc1c[nH]c2ccccc12)NC(=O)[C@H](Cc1ccccc1)NC(=O)[C@@H](NC(=O)[C@@H](NC(=O)[C@H](CCCCN)NC(=O)[C@@H](N)CCCCN)C(C)C)C(C)C)C(=O)N[C@@H](CCCCN)C(=O)N[C@@H](Cc1ccccc1)C(=O)N[C@@H](CCCCN)C(=O)O [Peptide P10, Lys-Lys-Val-Val-Phe-Trp-Val-Lys-Phe-Lys] (H-KKVVFWVKFK-OH)", "64 µg/mL"),
]

Prompt: Query: MIC; subject: COC(=O)/C=C/C(=O)NC[C@H](N)C(=O)N[C@@H](CCCNC(=N)N)C(=O)N[C@@H](CCCCN)C(=O)N[C@@H](CCCCN)C(=O)N[C@@H](Cc1c[nH]c2ccccc12)C(=O)N[C@@H](Cc1ccccc1)C(=O)N[C@@H](Cc1c[nH]c2ccccc12)C(=O)O [Peptide F7, FMDP-Arg-Lys-Lys-Trp-Phe-Trp] (H-[Dap](Fumaryl(OMe))RKKWFW-OH; N-terminus and C-terminus assumed)
Response: >128 µg/mL

###

system: C. albicans SC5314; format: cell-based, Candida albicans; conditions: SC 5314; YNB + amino acid mixture (composition as in RPMI-1640)
Where a SMILES comes first, the peptide text is derived from it. [ ]: non-standard residue; d: D form. The star is where a group is joined. Fumaryl(OMe) = COC(=O)/C=C/C(=O)*; Dap = NC[C@H](N)C(=O)O
As shown below, each of these compounds has a reported MIC value.

Here is how some compounds turned out for MIC.
# compound, measured.parameter, value
measured = [
    ("CC(C)[C@H](NC(=O)[C@H](Cc1c[nH]c2ccccc12)NC(=O)[C@H](Cc1ccccc1)NC(=O)[C@@H](NC(=O)[C@@H](NC(=O)[C@H](CCCCN)NC(=O)[C@@H](N)CCCCN)C(C)C)C(C)C)C(=O)N[C@@H](CCCCN)C(=O)N[C@@H](Cc1ccccc1)C(=O)N[C@@H](CCCCN)C(=O)O [Peptide P10, Lys-Lys-Val-Val-Phe-Trp-Val-Lys-Phe-Lys] (H-KKVVFWVKFK-OH)", "MIC", "64 µg/mL"),
    ("COC(=O)/C=C/C(=O)NC[C@H](NC(=O)[C@H](CCSC)NC(=O)[C@@H](NC(=O)[C@@H]1CCCN1C(=O)[C@H](CC(C)C)NC(=O)[C@@H](N)CCCCN)C(C)C)C(=O)O [Peptide F6, Lys-Leu-Pro-Val-Met-FMDP] (H-KLPVM[Dap](Fumaryl(OMe))-OH; N-terminus and C-terminus assumed)", "MIC", ">128 µg/mL"),
    ("COC(=O)/C=C/C(=O)NC[C@H](N)C(=O)N[C@@H](CCCCN)C(=O)N[C@@H](CCCCN)C(=O)N[C@H](C(=O)N[C@H](C(=O)N[C@@H](Cc1ccccc1)C(=O)N[C@@H](Cc1c[nH]c2ccccc12)C(=O)N[C@H](C(=O)N[C@@H](CCCCN)C(=O)N[C@@H](Cc1ccccc1)C(=O)N[C@@H](CCCCN)C(=O)O)C(C)C)C(C)C)C(C)C [Peptide F11] (H-[Dap](Fumaryl(OMe))KKVVFWVKFK-OH; N-terminus assumed)", "MIC", ">128 µg/mL"),
]

Switching to the query record.
Prompt: Query: MIC; subject: COC(=O)/C=C/C(=O)NC[C@H](N)C(=O)N[C@@H](CCCNC(=N)N)C(=O)N[C@@H](CCCCN)C(=O)N[C@@H](CCCCN)C(=O)N[C@@H](Cc1c[nH]c2ccccc12)C(=O)N[C@@H](Cc1ccccc1)C(=O)N[C@@H](Cc1c[nH]c2ccccc12)C(=O)O [Peptide F7, FMDP-Arg-Lys-Lys-Trp-Phe-Trp] (H-[Dap](Fumaryl(OMe))RKKWFW-OH; N-terminus and C-terminus assumed)
Response: >128 µg/mL

###

System: C. albicans opt1–opt5Δ ptr2Δ ptr22Δ
Assay: Initial peptide uptake rate
Type: cell-based, Candida albicans
Conditions: 50 mM potassium phosphate buffer (pH 5.0 or 6.5) + 1% glucose, 30°C, 100 μM peptide, TNBS A420, slope 0- to 10-min
Experimental: Yeast cells grown exponentially in the YNB-SG medium were harvested by centrifugation (3000 ×g, 5 min), washed with 50 mM potassium phosphate buffer (pH 5.0 or 6.5), and suspended in the same buffer containing 1% glucose, to a final cell density corresponding to A660 ≅ 1.0. The cell suspension was incubated at 30°C. […] The A420 values were measured and the peptide concentration was read from the appropriate standard curve. […]
Where a SMILES comes first, the peptide text is derived from it. [ ]: non-standard residue; d: D form. Nva = CCC[C@H](N)C(=O)O
measured.parameter: Uptake rate ± SD

Prompt: Hi! What's the reported Uptake rate ± SD for CCC[C@H](NC(=O)[C@@H](N)CCCCN)C(=O)N[C@@H](Cc1ccccc1)C(=O)N[C@@H](CCSC)C(=O)N[C@@H](CC(=O)O)C(=O)N1CCC[C@H]1C(=O)O [Peptide F3, Lys-Nva-FMDP] (H-K[Nva]FMDP-OH) on C. albicans opt1–opt5Δ ptr2Δ ptr22Δ?
Response: <0.1 nmol min^-1 (mg dry weight)^-1

###

tested on: C. albicans opt2Δ opt3Δ; format: cell-based, Candida albicans; details: RPMI-1640 medium, MOPS pH 7.0, CLSI conditions, turbidity 531 nm, at least 80% decrease
Where a SMILES comes first, the peptide text is derived from it. [ ]: non-standard residue; d: D form. The star is where a group is joined. Fumaryl(OMe) = COC(=O)/C=C/C(=O)*; Dap = NC[C@H](N)C(=O)O
measured.parameter: MIC

Prompt: Query: MIC; subject: COC(=O)/C=C/C(=O)NC[C@H](N)C(=O)N[C@@H](CCCNC(=N)N)C(=O)N[C@@H](CCCCN)C(=O)N[C@@H](CCCCN)C(=O)N[C@@H](Cc1c[nH]c2ccccc12)C(=O)N[C@@H](Cc1ccccc1)C(=O)N[C@@H](Cc1c[nH]c2ccccc12)C(=O)O [Peptide F7, FMDP-Arg-Lys-Lys-Trp-Phe-Trp] (H-[Dap](Fumaryl(OMe))RKKWFW-OH; N-terminus and C-terminus assumed)
Response: >128 µg/mL
